- TARGET UNDER TEST: beta3 adrenergic receptor (Homo sapiens, UniProt P13945)
- Sequence (P13945 whole entry): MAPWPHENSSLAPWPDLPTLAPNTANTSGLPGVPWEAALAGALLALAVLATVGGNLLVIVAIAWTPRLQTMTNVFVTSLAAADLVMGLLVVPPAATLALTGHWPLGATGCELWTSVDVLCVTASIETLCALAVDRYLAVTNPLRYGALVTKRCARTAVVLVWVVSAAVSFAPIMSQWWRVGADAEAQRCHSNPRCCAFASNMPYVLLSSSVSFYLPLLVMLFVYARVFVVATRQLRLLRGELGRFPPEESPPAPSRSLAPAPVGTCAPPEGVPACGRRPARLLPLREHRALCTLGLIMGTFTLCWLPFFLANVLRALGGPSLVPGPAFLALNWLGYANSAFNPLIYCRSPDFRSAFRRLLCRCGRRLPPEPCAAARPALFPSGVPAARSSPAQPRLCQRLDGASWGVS
PROPERTY MEASURED: Ki

(Q) # query: Ki | item CCCN[C@H]1CCc2nc(N)sc2C1 [PRAMIPEXOLE] | system: beta3 adrenergic receptor (Homo sapiens, UniProt P13945)
(A) > 10 µM

----------
- TARGET UNDER TEST: Alpha-2C adrenergic receptor (Homo sapiens)
- Sequence (P18825 whole entry): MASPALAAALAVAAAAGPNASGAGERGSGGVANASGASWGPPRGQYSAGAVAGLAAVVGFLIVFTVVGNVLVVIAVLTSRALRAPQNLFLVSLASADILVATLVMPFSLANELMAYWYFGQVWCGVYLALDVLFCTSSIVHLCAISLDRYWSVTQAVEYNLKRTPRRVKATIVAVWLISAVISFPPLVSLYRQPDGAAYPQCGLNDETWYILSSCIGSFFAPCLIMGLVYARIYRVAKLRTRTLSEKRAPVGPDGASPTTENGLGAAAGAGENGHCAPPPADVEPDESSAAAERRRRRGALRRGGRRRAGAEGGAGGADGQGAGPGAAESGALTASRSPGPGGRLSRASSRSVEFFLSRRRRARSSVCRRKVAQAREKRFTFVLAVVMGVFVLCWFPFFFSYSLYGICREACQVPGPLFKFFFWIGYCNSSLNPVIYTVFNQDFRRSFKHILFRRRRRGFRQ
- PROCEDURE TEXT: Displacement of [3H]-rauwolscine from recombinant human alpha2C adrenergic receptor stably expressed in MDCK cell membranes at 10 uM measured after 90 mins by microbeta scintillation counting method relative to control
- COND: probe [3H]-rauwolscine
PROPERTY MEASURED: inhibition at […], 10 µM

[
  {
    "COMPOUND": "CCCN[C@H]1CCc2nc(N)sc2C1 [PRAMIPEXOLE]",
    "inhibition at […], 10 µM": "> 50%"
  }
]

(Q) Need inhibition at […], 10 µM, item "CCCN(CC[C@]1(O)C[C@H](NC(=O)c2ccc3ccccc3c2)C1)[C@H]1CCc2nc(N)sc2C1"
(A) < 50%

----------
- TARGET UNDER TEST: Muscarinic acetylcholine receptor M2 (Homo sapiens)
- Sequence (P08172 whole entry): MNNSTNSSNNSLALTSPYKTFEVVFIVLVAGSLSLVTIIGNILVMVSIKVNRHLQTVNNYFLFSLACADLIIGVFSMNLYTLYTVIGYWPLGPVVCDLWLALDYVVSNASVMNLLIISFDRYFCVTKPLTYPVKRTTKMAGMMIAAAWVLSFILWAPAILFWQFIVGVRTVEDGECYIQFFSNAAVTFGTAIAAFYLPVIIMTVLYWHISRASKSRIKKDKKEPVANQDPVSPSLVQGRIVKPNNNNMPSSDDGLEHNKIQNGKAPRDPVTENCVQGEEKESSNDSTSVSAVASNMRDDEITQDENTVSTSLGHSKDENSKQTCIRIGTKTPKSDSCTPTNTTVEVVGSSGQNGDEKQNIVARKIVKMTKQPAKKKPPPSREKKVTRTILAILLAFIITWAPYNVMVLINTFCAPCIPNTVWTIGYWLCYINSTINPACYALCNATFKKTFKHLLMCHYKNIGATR
PROPERTY MEASURED: Ki

(Q) Need Ki, item CCCN[C@H]1CCc2nc(N)sc2C1 [PRAMIPEXOLE]
(A) > 10 µM

----------
- TARGET UNDER TEST: UniProtKB P14416
- PROCEDURE TEXT: Agonist activity at human D2R expressed in CHOK1 cells assessed as induction of beta-arrestin recruitment measured after 90 mins by beta-galactosidase based PathHunter assay
- Format: cell-based
- COND: read-out: EC50
PROPERTY MEASURED: pEC50
Answer as the number alone; pEC50 is minus log10 of concentration in mol/L.

Illustrative cases are given below, each with its answer.
[
  {
    "SMILES ENTRY": "COc1ccc(OCCN2CCN(C(=O)c3cc4c(Cl)cccc4[nH]3)CC2)cc1",
    "TARGET UNDER TEST": "UniProtKB P14416",
    "pEC50": 5.15
  },
  {
    "SMILES ENTRY": "COc1ccc(C(=O)N2CCN(CCOc3cccnc3)CC2)cc1",
    "TARGET UNDER TEST": "UniProtKB P14416",
    "pEC50": 5.54
  }
]

(Q) Need pEC50, item "COc1ccc(OCCN2CCN(C(=O)c3cc4cccc(C)c4[nH]3)CC2)cc1"
(A) 5.00

(Q) Need pEC50, item "O=C(c1cc2cccc(Cl)c2[nH]1)N1CCN(CCOc2cccnc2)CC1"
(A) 6.21

----------
- TARGET UNDER TEST: D(3) dopamine receptor (Homo sapiens)
- PROCEDURE TEXT: Agonist activity at human D3R expressed in CHOK1 cells assessed as induction of beta-arrestin recruitment measured after 90 mins by beta-galactosidase based PathHunter assay
- Type: cell-based
- COND: read-out: EC50
PROPERTY MEASURED: pEC50
Answer as the number alone; pEC50 is minus log10 of concentration in mol/L.

Illustrative cases are given below, each with its answer.
[
  {
    "SMILES ENTRY": "COc1cccc(OCCN2CCN(C(=O)c3cc4cccnc4[nH]3)CC2)c1",
    "pEC50": 7.30
  },
  {
    "SMILES ENTRY": "COc1ccc(OCCN2CCN(C(=O)c3cc4ccccc4[nH]3)CC2)c(Cl)c1",
    "pEC50": 7.39
  },
  {
    "SMILES ENTRY": "Cc1ccc(OCCN2CCN(C(=O)c3cc4ccccc4[nH]3)CC2)cc1C",
    "pEC50": 6.21
  }
]

(Q) # query: pEC50 | item "COc1cccc(OCCN2CCN(C(=O)c3nc4ccccc4[nH]3)CC2)c1" | system: D(3) dopamine receptor (Homo sapiens)
(A) 6.55

(Q) # query: pEC50 | item "O=C(c1cc2ccccc2[nH]1)N1CCN(CCOc2ccccn2)CC1" | system: D(3) dopamine receptor (Homo sapiens)
(A) 5.46

(Q) # query: pEC50 | item "COc1ccc(OCCN2CCN(C(=O)c3cc4ccc(C)cc4[nH]3)CC2)cc1" | system: D(3) dopamine receptor (Homo sapiens)
(A) 6.89

----------
Measured Emax values are reported for all entries that follow.
- TARGET UNDER TEST: D(2) dopamine receptor (Homo sapiens)
- Sequence (P14416 whole entry): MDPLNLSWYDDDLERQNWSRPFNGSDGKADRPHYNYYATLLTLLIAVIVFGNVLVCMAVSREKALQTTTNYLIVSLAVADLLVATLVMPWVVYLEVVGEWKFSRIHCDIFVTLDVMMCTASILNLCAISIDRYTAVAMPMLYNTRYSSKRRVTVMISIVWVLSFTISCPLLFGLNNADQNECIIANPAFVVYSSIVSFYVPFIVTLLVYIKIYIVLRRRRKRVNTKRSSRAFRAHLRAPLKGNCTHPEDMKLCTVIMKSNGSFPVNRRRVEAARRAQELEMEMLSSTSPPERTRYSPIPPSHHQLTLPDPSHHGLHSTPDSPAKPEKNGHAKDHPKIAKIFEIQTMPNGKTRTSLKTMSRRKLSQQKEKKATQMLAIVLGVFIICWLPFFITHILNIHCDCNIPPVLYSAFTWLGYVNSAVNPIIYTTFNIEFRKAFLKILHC
- PROCEDURE TEXT: Antagonist activity at human D2R expressed in CHOK1 cells assessed as inhibition of dopamine-induced beta-arrestin recruitment measured after 120 mins by beta-galactosidase based PathHunter assay relative to sulpiride
- Type: cell-based
- COND: 2 h, read-out: Imax
Form entry: value (%) — number only.

Illustrative cases are given below, each with its answer.
[
  {
    "COMPOUND": "COc1ccc(OCCN2CCN(C(=O)c3cc4ccccc4n3C)CC2)cc1",
    "READING UNIT": "%",
    "Emax": 105
  },
  {
    "COMPOUND": "COc1ccc(C(=O)N2CCN(CCOc3ccc4c(c3)OCO4)CC2)cc1",
    "READING UNIT": "%",
    "Emax": 87
  },
  {
    "COMPOUND": "COc1ccc(OCCN2CCN(C(=O)c3cc4ccccc4o3)CC2)cc1",
    "READING UNIT": "%",
    "Emax": 111
  },
  {
    "COMPOUND": "COc1ccc(C(=O)N2CCN(CCOc3ccc(Cl)cc3)CC2)cc1",
    "READING UNIT": "%",
    "Emax": 101
  }
]

// next entry
(Q) Need Emax, item COc1ccc(OC(C)CN2CCN(C(=O)c3ccc(OC)cc3)CC2)cc1 (stereo not given)
(A) 89

----------
- TARGET UNDER TEST: D(2) dopamine receptor (Homo sapiens)
- PROCEDURE TEXT: Agonist activity at human D2R expressed in CHOK1 cells assessed as induction of beta-arrestin recruitment measured after 90 mins by beta-galactosidase based PathHunter assay
- Assay type: cell-based
- COND: read-out: EC50
Measured EC50 values are reported for all entries that follow.

[
  {
    "SMILES ENTRY": "O=C(c1cc2ccccc2[nH]1)N1CCN(CCOc2ccc(F)cc2)CC1",
    "EC50": "> 50 µM"
  },
  {
    "SMILES ENTRY": "COc1ccc(OCCN2CCN(C(=O)c3cc4cc(C)ccc4[nH]3)CC2)cc1",
    "EC50": "> 50 µM"
  }
]

// next entry
(Q) Need EC50, item "COc1ccc(OCCN2CCN(C(=O)c3cc4ncccc4[nH]3)CC2)cc1"
(A) > 100 µM

----------
- TARGET UNDER TEST: D(3) dopamine receptor (Homo sapiens, UniProt P35462)
- Sequence (P35462 whole entry): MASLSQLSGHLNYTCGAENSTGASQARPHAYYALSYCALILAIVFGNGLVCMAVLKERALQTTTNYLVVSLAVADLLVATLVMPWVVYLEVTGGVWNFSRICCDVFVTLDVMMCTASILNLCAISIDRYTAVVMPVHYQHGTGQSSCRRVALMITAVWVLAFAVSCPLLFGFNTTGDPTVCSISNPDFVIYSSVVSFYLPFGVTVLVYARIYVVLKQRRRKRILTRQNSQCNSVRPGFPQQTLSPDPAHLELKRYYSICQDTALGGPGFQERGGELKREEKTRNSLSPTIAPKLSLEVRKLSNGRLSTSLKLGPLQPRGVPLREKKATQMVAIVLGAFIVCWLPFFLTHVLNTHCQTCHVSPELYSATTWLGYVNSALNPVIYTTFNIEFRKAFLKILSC
- PROCEDURE TEXT: Agonist activity at human D3R expressed in CHOK1 cells assessed as induction of beta-arrestin recruitment measured after 90 mins by beta-galactosidase based PathHunter assay
- Assay type: cell-based
- COND: read-out: EC50
PROPERTY MEASURED: log10(EC50) (log10 of the value in nM)
Recorded EC50 (log10, nM)

Illustrative cases are given below, each with its answer.
[
  {
    "SMILES ENTRY": "Cc1cc(OCCN2CCN(C(=O)c3cc4ccccc4[nH]3)CC2)ccc1Cl",
    "log10(EC50)": 2.06
  },
  {
    "SMILES ENTRY": "COc1cccc(OCCN2CCN(C(=O)c3cc4ccccc4[nH]3)CC2)c1",
    "log10(EC50)": 1.53
  },
  {
    "SMILES ENTRY": "COc1ccc(OCCN2CCN(C(=O)c3cc4c(Cl)cccc4[nH]3)CC2)cc1",
    "log10(EC50)": 2.20
  },
  {
    "SMILES ENTRY": "COc1ccc(OCCN2CCN(C(=O)c3cc4cc(C)ccc4[nH]3)CC2)cc1",
    "log10(EC50)": 2.79
  },
  {
    "SMILES ENTRY": "O=C(c1cc2ccncc2[nH]1)N1CCN(CCOc2cccnc2)CC1",
    "log10(EC50)": 1.91
  }
]

(Q) Need log10(EC50), item "COc1ccc(C(=O)N2CCN(CCOc3cccc(OC)c3)CC2)cc1"
(A) 1.99

(Q) Need log10(EC50), item "COc1ccc(OCCN2CCN(C(=O)c3cc4cccc(OC)c4[nH]3)CC2)cc1"
(A) 2.99

(Q) Need log10(EC50), item "COc1ccc(OCCN2CCN(C(=O)c3cc4ccccc4n3C)CC2)cc1"
(A) 2.49

(Q) Need log10(EC50), item "O=C(c1cc2ccccc2[nH]1)N1CCN(CCOc2cncc(Cl)c2)CC1"
(A) 0.70

(Q) Need log10(EC50), item "Cc1ccc2[nH]c(C(=O)N3CCN(CCOc4cccnc4)CC3)cc2c1"
(A) 1.11
